Below, each of the compounds is paired with its reported Uric acid 1 h value.
Tested on: rats with hyperuricemia induced by potassium oxonate
Assay: Treatment of hyperuricemia in rats induced by potassium oxonate, serum uric acid
Assay type: in vivo, SD rat
Details: 1-day administration, 1 mg/kg gavage, 1 h after potassium oxonate

Illustrative cases are given below, each with its answer.
compound	Uric acid 1 h
CC(C)n1cc(C#N)c2cc(-n3ncc(C(=O)O)n3)ccc21	104.3 ± 20.3 µmol/L
Cc1nc(-c2ccc(OCC(C)C)c(C#N)c2)sc1C(=O)O [Febuxostat, reference compound]	76.4 ± 11.4 µmol/L
CC(C)n1nc(C#N)c2cc(-n3ncc(C(=O)O)n3)ccc21	96.2 ± 9.3 µmol/L
CC(C)n1nc(C#N)c2cc(-n3cc(C(=O)O)cn3)ccc21	70.6 ± 7.7 µmol/L

Query: Given the entry CC(C)n1nc(C#N)c2cc(-c3cc(C(=O)O)ccn3)ccc21 , report its measured Uric acid 1 h.
Response: 74.7 ± 11.3 µmol/L
